# condition.details: 278.15 K; 101.33 kPa; Liquid
Examples of compounds with documented viscosity follow.
Dear colleague, please return just the value in mPa·s, with no unit written.

These solved cases illustrate the format of a correct answer.
Prompt: Name the reported viscosity value associated with the compound "CCC[n+]1cccc(C)c1.O=S(=O)([N-]S(=O)(=O)C(F)(F)F)C(F)(F)F"
Response: 159.86

Prompt: Next record, please: "CCCC[n+]1ccc(C)cc1.O=S(=O)([N-]S(=O)(=O)C(F)(F)F)C(F)(F)F"
Response: 169.9

Prompt: Next record, please: CCCCCC[n+]1ccccc1.O=S(=O)([N-]S(=O)(=O)C(F)(F)F)C(F)(F)F [1-hexylpyridinium bis(trifluromethylsulfonyl)imide]
Response: 322.08

Prompt: Next record, please: CCCC[n+]1ccccc1.O=S(=O)([N-]S(=O)(=O)C(F)(F)F)C(F)(F)F [1-butylpyridinium bis[(trifluoromethyl)sulfonyl]imide]
Response: 181.81

API: the following record is the query input.
Prompt: Name the reported viscosity value associated with the compound "CCCCCCCC[n+]1cccc(C)c1"
Response: 398.72
